# SYSTEM UNDER TEST: HIV-1 protease (Human immunodeficiency virus type 1 group M subtype B, UniProt P04585)
# TEST DESCRIPTION: inhibition constants against HIV-1 protease (method of Pennington et al.)
# Type: biochemical
For each of the molecules below, state its pKi.
Answers are plain numbers, as −log10 of the molar value.

>>> test_value("COc1ccc(S(=O)(=O)N(CC(O)CN2C(=O)N(C)C[C@@H]2Cc2ccccc2)CC2CCCC2)cc1 (stereo partly shown)")
6.65
>>> test_value("COc1ccc(S(=O)(=O)N(CC(O)CN2C(=O)C(C)(C)NC[C@@H]2Cc2ccccc2)CC2CCCC2)cc1 (stereo partly shown)")
6.41
>>> test_value("COc1ccc(S(=O)(=O)N(CC(O)CN2C(=O)C(CC(COC(C)=O)OC(C)=O)C[C@@H]2Cc2ccccc2)CC2CCCC2)cc1 (stereo partly shown)")
7.08

For record COc1ccc(S(=O)(=O)N(CC(O)CN2C(=O)CNC[C@@H]2Cc2ccccc2)CC2CCCC2)cc1 (stereo partly shown) the listed pKi is 5.52
